Recorded values, source ChEMBL document CHEMBL3507680.

Test: Human HepG2 cell viability assay in 384 well format
Format: toxicity, cell-based
Set-up: dose 125 nL, time 70.5 hour; concentration not given beside the values
Conditions: HepG2 cells, read-out: Inhibition
metric.name: cytotoxicity at 70.5 h (%)
Number in %, nothing else.

Reference set (5 entries):
| compound | reported.measurement |
| --- | --- |
| CC(Nc1nc(-c2ccccc2)nc2c1CCNCC2)c1cccnc1 (stereo unspecified) | 2.48 |
| CCN1CCC2(CN(C(=O)N(C)C)CC23CCN(CC2CC2)CC3)C1=O (stereo unspecified) | 18.4 |
| N#Cc1cccc(S(=O)(=O)N2CCCCC2CCN2CCCC2)c1 (stereo unspecified) | -3.74 |
| COC1CCN(C(=O)Nc2cc(C(F)(F)F)c[nH]c2=O)CC1 | -6.98 |
| O=C1CCCN1C1CCN(S(=O)(=O)CCOc2ccc(F)cc2)CC1 | 23.9 |

Lab book: cytotoxicity at 70.5 h of O=C(c1cccnc1N1CCOCC1)N1CCCC(n2cncn2)C1 (stereo unspecified) noted as 18.2

# compound CCCNC(=O)CN1CCC(NCc2csc(C(C)C)n2)CC1 ; its cytotoxicity at 70.5 h = -11.5

Query Cc1cc(C)n(-c2ccc(C(=O)N3CCCC3c3cnn(C)c3)cc2)n1 (stereo unspecified) yields cytotoxicity at 70.5 h of -5.54

The compound NC(=O)c1cccc(C2CCN(c3ncccn3)CC2)n1 showed cytotoxicity at 70.5 h equal to -13.4
